Here, each record is paired with measured z-score data.
Experiment: decrease of insulin promoter-GFP reporter – imaging, high-content screening, mouse beta cells (AID 1628)
Conditions: MIN6 insulin promoter GFP reporter, at 5 µM, active compounds read low
The whole screen tested about 190,000 compounds, of which about 930 (0.49%) were called active. This is one part of the list. Results with a measured potency or affinity are listed apart.
Just the number, please, no unit after it.

CCN(CC)c1ccc(C(=O)N/N=C/c2ccc(N3CCOCC3)cc2)cc1	3.38
COc1ccccc1C(c1nnnn1Cc1ccccc1)N1CCN(c2nc3ccccc3s2)CC1 (stereo not given)	-5.06
COc1cccc(CN2CCN(C3CCN(c4cccc(C)c4C)CC3)CC2CCO)c1 (stereo not given)	-8.37

Here is the next item to consider.
Inquiry: Given CCCCOc1ccc(-c2cc(C(F)(F)F)c(C#N)c(SCC(=O)O)n2)cc1 , state its recorded z-score.
Reply text: 4.82
